- Test system: Plasmodium falciparum
- PROCEDURE TEXT: Antimalarial activity against chloroquine-sensitive synchronized ring stage of Plasmodium falciparum 3D7 incubated for 48 to 52 hrs by SYBR green 1 dye based assay
- Format: functional, organism-based
- CONDITION NOTES: read-out: EC50
MEASURE NAME: EC50 (µM)
Please give a number only; it is taken to be in µM.

The value of EC50 measured for the molecule CCN(CC)Cc1ccc(OC)c(-c2cc3c(-c4ccc(C(=O)O)c(C)c4)ccnc3[nH]2)c1 turned out to be 1.19

The measured EC50 associated with CCN(CC)Cc1ccc(OC)c(-c2cc3c(-c4ccc(C(=O)O)cc4)ccnc3[nH]2)c1 reads 3.27

Entry CCN(CC)Cc1cccc(-c2cc3c(-c4ccc(C(=O)O)c(C(C)C)c4)ccnc3[nH]2)c1OC ; EC50 = 3.17

The molecule identified as CCN(CC)Cc1ccc(O)c(-c2cc3c(-c4ccc(C(=O)O)c(C(C)C)c4)ccnc3[nH]2)c1 registered its EC50 at 3.53

Briefly, EC50 measured for CCc1nc(N)nc(N)c1-c1ccc(Cl)cc1 : 0.018

* * *

- System: Plasmodium falciparum
- PROCEDURE TEXT: Antimalarial activity against chloroquine-sensitive synchronized ring stage of Plasmodium falciparum 3D7 incubated for 48 to 52 hrs by SYBR green 1 dye based assay
- Type: functional, organism-based
- CONDITION NOTES: read-out: pEC50 (converted)
MEASURE NAME: EC50 (µM)
Record the value in µM, omitting the unit from your answer.

Value of EC50 reported for the molecule CCN(CC)Cc1ccc(OC)c(-c2cc3c(-c4ccc(C(=O)O)c(C)c4)ccnc3[nH]2)c1 is 2.51

Please fill in: EC50 reported for CCN(CC)Cc1cccc(-c2cc3c(-c4ccc(C(=O)O)c(C(C)C)c4)ccnc3[nH]2)c1OC = 2.51

Form field EC50, entry COc1ccccc1-c1cc2c(-c3ccc(C(=O)O)c(C(C)C)c3)ccnc2[nH]1 : 1.58

Lab note: measured EC50 of COc1ccc(CN)cc1-c1cc2c(-c3ccc(C(=O)O)c(C(C)C)c3)ccnc2[nH]1 was 2.51

* * *

- PROCEDURE TEXT: Distribution coefficient, log D of the compound at pH 7.4 by HPLC method
- Assay type: physicochemical
- CONDITION NOTES: octanol/water
MEASURE NAME: logD
No unit in the answer, please; the number alone is enough.

Sure, the documented logD for CCN(CC)Cc1cccc(-c2cc3c(-c4ccc(C(=O)O)c(C(C)C)c4)ccnc3[nH]2)c1OC is 0.74

// recorded logD for CCOC(=O)c1ccc(-c2ccnc3[nH]c(-c4cc(CN(CC)CC)ccc4OC)cc23)cc1C(C)C : 2.45

// field: logD; key: COc1ccc(CN(C)C)cc1-c1cc2c(-c3ccc(C(=O)O)c(C(C)C)c3)ccnc2[nH]1 ; value = 0.85

Query CCN(CC)Cc1ccc(OC)c(-c2cc3c(-c4ccc(C(=O)O)cc4)ccnc3[nH]2)c1 yields logD of 0.65

Recorded result, CCN(CC)Cc1ccc(OC)c(-c2cc3c(-c4cccc(C(C)C)c4)ccnc3[nH]2)c1 , logD: 4.45

Kindly note the recorded logD for COc1ccc(CN)cc1-c1cc2c(-c3ccc(C(=O)O)c(C(C)C)c3)ccnc2[nH]1 , which is 0.61

In plain terms, CCN(CC)Cc1cccc(-c2cc3c(-c4ccc(C(=O)O)c(C(C)C)c4)ccnc3[nH]2)c1 has a documented logD of 0.8

// field: logD; key: CCN(CC)Cc1ccc(O)c(-c2cc3c(-c4ccc(C(=O)O)c(C(C)C)c4)ccnc3[nH]2)c1 ; value = 0.59

Value of logD reported for the compound COc1ccccc1-c1cc2c(-c3ccc(C(=O)O)c(C(C)C)c3)ccnc2[nH]1 is 2.45

logD for COc1ccc(CN2CCCC2)cc1-c1cc2c(-c3ccc(C(=O)O)c(C(C)C)c3)ccnc2[nH]1 is 2.43

For reference, reported logD for CCN(CC)Cc1ccc(OC)c(-c2cc3c(-c4ccc(C(=O)O)c(C(C)C)c4)ccnc3[nH]2)c1 stands at 0.93

Per the record, CCN(CC)Cc1ccc(OC)c(-c2cc3c(-c4ccc(C(=O)O)c(C)c4)ccnc3[nH]2)c1 has logD of 0.66

The compound identified as CCN(CC)Cc1ccc(OC)c(-c2cc3c(-c4ccc(-c5nnn[nH]5)c(C(C)C)c4)ccnc3[nH]2)c1 registered its logD at 0.93
